Each item that follows carries a reported koff.
biological target: T1, human-CD40-monomer protein (human, UniProt P25942 21-193, limits assumed); assay: SPR, Ab captured on protein A, hCD40 monomer 500 and 50 nM, 1:1 fit; supernatant
T1 construct: Soluble monomer generated in house, used as SPR analyte; also called hCD40; hCD40-monomer
T1 sequence (P25942 21-193 limits assumed): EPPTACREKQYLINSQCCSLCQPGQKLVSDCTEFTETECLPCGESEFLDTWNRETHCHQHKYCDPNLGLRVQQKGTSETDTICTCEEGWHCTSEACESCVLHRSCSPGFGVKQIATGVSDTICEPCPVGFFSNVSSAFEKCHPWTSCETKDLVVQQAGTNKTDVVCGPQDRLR
Hi! Could you send only the number? It should be in s⁻¹, unit omitted.

Examples with answers:
Y12XX-hz38 (antibody, human IgG1, kappa, V domains shown, Humanized, IgG1-P238K; supernatant sample) VH: QVQLVQSGAEVKKPGSSVKVSCKASGYAFTSYWMHWVRQRPGQGLEWMGQINPSNGRSQYNEKFKTRVTITADKSTSTAYMELSSLRSEDTAVYYCARWGLQPFAYWGQGTLVTVSS VL: EIVMTQSPATLSVSPGERATLSCKASQDVSTAVAWYQQKPGQAPRLLIYSASYRYTGIPARFSGSGSGTEFTLTISSLQSEDFAVYYCQQHYSTPWTFGGGTKVEIKR	0.00088
Y12XX-hz9 (antibody, human IgG1, kappa, V domains shown, Humanized, IgG1-P238K; supernatant sample) VH: QVQLVQSGAEVKKPGSSVKVSCKASGYAFTSYWMHWVRQAPGQGLEWMGQINPSNGRSQYNEKFKTRVTITADKSTSTAYMELSSLRSEDTAVYYCARWGLQPFAYWGQGTLVTVSS VL: DIQMTQSPSSLSASVGDRVTITCKASQDVSTAVAWYQQKPGKAPKLLIYSASYRYTGVPSRFSGSGSGTDFTFTISSLQPEDIATYYCQQHYSTPWTFGGGTKVEIKR	0.00089

Now consider the entry below.
Item under review: Y12XX-hz27 (antibody, human IgG1, kappa, V domains shown, Humanized, IgG1-P238K; supernatant sample) VH: QVQLVQSGAEVKKPGSSVKVSCKASGYAFTSYWMHWVRQAPGQGLEWMGQINPSNARSQYNEKFKTRVTITADKSTSTAYMELSSLRSEDTAVYYCARWGLQPFAYWGQGTLVTVSS VL: DIQMTQSPSFLSASVGDRVTITCKASQDVSTAVAWYQQKPGKAPKLLIYSASYRYTGVPSRFSGSGSGTDFTLTISSLQPEDFATYYCQQHYSTPWTFGGGTKVEIKR . Reported koff? 0.00088

Data credit: patent US20240124597A1
